System: HEK-293T
measurementNotes: Multiplex assay against HEK293T
Type: toxicity, cell-based
statedConditions: human, 24 h, 10 µM, compound concentration 10 uM, replicate 2
recordedEndpoint: Population Mitochondria Different-Phenotype (%)
Numeric answer only, unit % assumed.

NCCc1cn(S(=O)(=O)c2c(Cl)nc3sccn23)c2ccccc12.O=C(O)C(=O)O
95

Proceed to the following item.
Item CN[C@@H](C)C(=O)N[C@H](C(=O)N1CCC[C@H]1C(=O)Nc1snnc1-c1ccccc1)C1CCCCC1 has what recorded Population Mitochondria Different-Phenotype (%)?
80

---

Tested on: HEK-293T
measurementNotes: Multiplex assay against HEK293T
Format: toxicity, cell-based
statedConditions: human, 24 h, 10 µM, compound concentration 10 uM, replicate 2
recordedEndpoint: Population Healthy Nuclei (%)
Numeric answer only, unit % assumed.

Cc1c(CC(=O)O)c2cccnc2n1Cc1ccc(S(C)(=O)=O)cc1C(F)(F)F
81
N#Cc1c(Oc2cccc(OS(=O)(=O)CCCC(F)(F)F)c2)cccc1C(F)(F)F
61
Br.CS(=O)(=O)Nc1c(O)ccc2c1CCCC2C1=NCCN1 (configuration not stated)
77
CC(C)(C)c1cc(NC(=O)Nc2ccc(-c3cn4c(n3)sc3cc(OCCN5CCOCC5)ccc34)cc2)no1
78
C[C@H](N)COC(=O)[C@@H](CCCCN)NC(=O)Cc1c(-c2ccc3ccccc3c2)[nH]c2c1ccc1ccccc12
80

Item Cl.NCCc1ccc(O)c(O)c1 [DOPAMINE HYDROCHLORIDE] has what recorded Population Healthy Nuclei (%)?
83

Now the compound Cl.N=C(N)NC(=O)Cc1c(Cl)cccc1Cl [GUANFACINE HYDROCHLORIDE]
83

---

System: HEK-293T
measurementNotes: Multiplex assay against HEK293T
Type: toxicity, cell-based
statedConditions: human, 12 h, 10 µM, compound concentration 10 uM, replicate 2
recordedEndpoint: Total Cell Count
Reply briefly: the number, and no unit.

Would you please look over these solved cases?
CCc1cc2cc(NS(=O)(=O)c3ccc(C#N)cc3)ccc2n(CC)c1=O
291
O=C(CCCc1ccccc1)Nc1nc2ccccc2c(=O)s1
371
O=C1[C@H](Cc2ccc(O)cc2)N2C(=O)CCN(C(=O)NCc3ccccc3)[C@H]2CN1Cc1cccc2ccccc12
257
CCCOc1ccc2[nH]cc(C3=CCNCC3)c2n1.Cl
387

Request: Total Cell Count, test system HEK-293T, entry CC(/C=C1\SC(=S)N(CCCC(=O)Nc2ccc(C(=O)O)c(O)c2)C1=O)=C\c1ccccc1
327

---

The compounds listed here are annotated with their Population Apoptotic (%).
System: U2OS
measurementNotes: Multiplex assay against U2OS
Assay type: toxicity, cell-based
statedConditions: human, 48 h, 10 µM, compound concentration 10 uM, replicate 2
Numeric answer only, unit % assumed.

N#Cc1cc(F)cc(-c2nc(-c3ccc(F)cn3)no2)c1
94
CC[C@@H](C)Nc1nc(C)nc2c(-c3ccc(OC)nc3C)c(C)nn12
100
COC[C@@H](c1ccc(C(F)(F)F)cc1)N1CCN(C2(C)CCN(C(=O)c3c(C)ncnc3C)CC2)C[C@@H]1C.O=C(O)/C=C\C(=O)O [VICRIVIROC MALEATE]
93
Br.CS(=O)(=O)Nc1c(O)ccc2c1CCCC2C1=NCCN1 (configuration not stated)
100
N#Cc1c(Oc2cccc(OS(=O)(=O)CCCC(F)(F)F)c2)cccc1C(F)(F)F
100
CC(=O)Nc1cccc2c1c(Sc1ccc(Cl)cc1)c(C)n2CC(=O)O
85
Cc1noc(-c2ccc(-c3ccc(CC(=O)O)cc3)cc2)c1NC(=O)O[C@H](C)c1ccccc1Cl
85
Cc1onc(-c2ccccc2Cl)c1C(=O)N(C)c1ccc(Cl)cc1
90

Item CCCCCC(O)/C=C/[C@H]1C(=O)CC(O)C1C/C=C\CCCC(=O)O (some centres not stated) has what recorded Population Apoptotic (%)?
100

Now the compound CC(C)(C)c1cc(NC(=O)Nc2ccc(-c3cn4c(n3)sc3cc(OCCN5CCOCC5)ccc34)cc2)no1
56

---

The compounds listed here are annotated with their Population Hoechst High Intensity Objects (%).
Test system: U2OS
measurementNotes: Multiplex assay against U2OS
Assay type: toxicity, cell-based
statedConditions: human, 12 h, 1 µM, compound concentration 1 uM, replicate 1
Numeric answer only, unit % assumed.

Would you please look over these solved cases?
CC(=O)Nc1cccc2c1c(Sc1ccc(Cl)cc1)c(C)n2CC(=O)O
3
O=C1[C@H](Cc2ccc(O)cc2)N2C(=O)CCN(C(=O)NCc3ccccc3)[C@H]2CN1Cc1cccc2ccccc12
4

Proceed to the following item.
Request: Population Hoechst High Intensity Objects (%), test system U2OS, entry Cc1cccc(NC(=O)CN2CCC(c3ccccn3)CC2)c1.Cl.Cl
1

---

Tested on: HEK-293T
measurementNotes: Multiplex assay against HEK293T
Assay type: toxicity, cell-based
statedConditions: human, 24 h, 10 µM, compound concentration 10 uM, replicate 2
recordedEndpoint: Population Healthy Nuclei (%)
Numeric answer only, unit % assumed.

Would you please look over these solved cases?
Cc1sc2c(c1C)C(c1ccc(Cl)cc1)=N[C@@H](CC(=O)NCCCCCCCCNC(=O)COc1cccc3c1C(=O)N(C1CCC(=O)NC1=O)C3=O)c1nnc(C)n1-2 (stereo not given in full)
60
CCCOc1ccc2[nH]cc(C3=CCNCC3)c2n1.Cl
81
NCCc1cn(S(=O)(=O)c2c(Cl)nc3sccn23)c2ccccc12.O=C(O)C(=O)O
62
Cc1cccc(NC(=O)CN2CCC(c3ccccn3)CC2)c1.Cl.Cl
75

Proceed to the following item.
Item CC(C)COc1ccc(CNC(=O)N(Cc2ccc(F)cc2)C2CCN(C)CC2)cc1 has what recorded Population Healthy Nuclei (%)?
54

---

Test system: U2OS
measurementNotes: Multiplex assay against U2OS
Format: toxicity, cell-based
statedConditions: human, 12 h, 10 µM, compound concentration 10 uM, replicate 1
Answer Condition not met if Population Mitochondria Different-Phenotype (%) is under 3%, and Condition met if it is 3% or more.

Does the compound CC(C)c1noc(N2CCC(COc3ccc(-c4ccc(S(C)(=O)=O)cc4)nc3)CC2)n1 have recorded Population Mitochondria Different-Phenotype (%) that is 3% or more?
Condition met

Now the compound CN[C@@H](C)C(=O)N[C@H](C(=O)N1CCC[C@H]1C(=O)Nc1snnc1-c1ccccc1)C1CCCCC1
Condition met

Now the compound CN(C)C(=O)Cn1cc(-c2ccc(-c3cncc4ccccc34)cc2)cn1
Condition met

Now the compound C[C@H](N)COC(=O)[C@@H](CCCCN)NC(=O)Cc1c(-c2ccc3ccccc3c2)[nH]c2c1ccc1ccccc12
Condition not met

Now the compound CCCOc1ccc2[nH]cc(C3=CCNCC3)c2n1.Cl
Condition met

Now the compound O=C1[C@H](Cc2ccc(O)cc2)N2C(=O)CCN(C(=O)NCc3ccccc3)[C@H]2CN1Cc1cccc2ccccc12
Condition met

Now the compound COc1cccc2c1c(NS(=O)(=O)c1ccc(Cl)s1)nn2Cc1cccc(CNC(=O)C(C)(C)O)c1
Condition not met

Now the compound Cc1cccc(NC(=O)CN2CCC(c3ccccn3)CC2)c1.Cl.Cl
Condition met

Now the compound O=C(CCCc1ccccc1)Nc1nc2ccccc2c(=O)s1
Condition not met

Now the compound Cc1noc(-c2ccc(-c3ccc(CC(=O)O)cc3)cc2)c1NC(=O)O[C@H](C)c1ccccc1Cl
Condition met

Now the compound CCCCC(=O)N(Cc1ccc(-c2ccccc2-c2nnn[nH]2)cc1)[C@H](C(=O)O)C(C)C
Condition not met

---

The compounds listed here are annotated with their Total Cell Count.
Tested on: Fibroblast
measurementNotes: Multiplex assay against human fibroblast
Type: toxicity, cell-based
statedConditions: 48 h, 1 µM, compound concentration 1 uM, replicate 2
Reply briefly: the number, and no unit.

O=C(CCCc1ccccc1)Nc1nc2ccccc2c(=O)s1
127
CCCOc1ccc2[nH]cc(C3=CCNCC3)c2n1.Cl
147
COc1ccccc1N1CCN(C[C@@H](C(=O)NC(C)(C)C)c2ccccc2)CC1.Cl.Cl
171

Proceed to the following item.
Item CCc1cc2cc(NS(=O)(=O)c3ccc(C#N)cc3)ccc2n(CC)c1=O has what recorded Total Cell Count?
156

---

Test system: U2OS
measurementNotes: Multiplex assay against U2OS
Assay type: toxicity, cell-based
statedConditions: human, 12 h, 10 µM, compound concentration 10 uM, replicate 1
Answer NOT MET if Population Membrane Permeable-Phenotype (%) is under 8%, and MET if it is 8% or more.

COc1cccc2c1c(NS(=O)(=O)c1ccc(Cl)s1)nn2Cc1cccc(CNC(=O)C(C)(C)O)c1
NOT MET
C[C@H](N)COC(=O)[C@@H](CCCCN)NC(=O)Cc1c(-c2ccc3ccccc3c2)[nH]c2c1ccc1ccccc12
NOT MET
CCCOc1ccc2[nH]cc(C3=CCNCC3)c2n1.Cl
NOT MET
CC(C)c1noc(N2CCC(COc3ccc(-c4ccc(S(C)(=O)=O)cc4)nc3)CC2)n1 [GSK-1292263]
MET
Cc1c(CC(=O)O)c2cccnc2n1Cc1ccc(S(C)(=O)=O)cc1C(F)(F)F [FEVIPIPRANT]
NOT MET

Does the molecule Cl.NCCc1ccc(O)c(O)c1 [DOPAMINE HYDROCHLORIDE] have recorded Population Membrane Permeable-Phenotype (%) that is 8% or more?
NOT MET

Now the molecule CCCCC(=O)N(Cc1ccc(-c2ccccc2-c2nnn[nH]2)cc1)[C@H](C(=O)O)C(C)C
NOT MET

Now the molecule Cc1onc(-c2ccccc2Cl)c1C(=O)N(C)c1ccc(Cl)cc1
MET
